Origin of measurements: the supplement of paper PMC4932681

- System: T-47D
- test-protocol: viability inhibition at highest dose (% inhibition); higher = more growth inhibition
- setup-conditions: 4-OH-tamoxifen in medium 1 µM; 72 h

compound	tested-on	viability inhibition at highest dose
O=C(Nc1c[nH]nc1-c1nc2ccc(CN3CCOCC3)cc2[nH]1)NC1CC1 [AT9283] (drug 1000 nM)	T-47D	-23.3
CCc1c2c(nc3ccc(OC(=O)N4CCC(N5CCCCC5)CC4)cc13)-c1cc3c(c(=O)n1C2)COC(=O)[C@]3(O)CC [Irinotecan] (drug 10000 nM)	T-47D	-0.292
CC1=C(/C=C/C(C)=C/C=C/C(C)=C/C(=O)O)C(C)(C)CCC1 [Tretinoin] (drug 10000 nM)	T-47D	2.8
C=C(c1ccc(C(=O)O)cc1)c1cc2c(cc1C)C(C)(C)CCC2(C)C [Bexarotene] (drug 10000 nM)	T-47D	14.2
CC(C)n1cnc2c(NCCc3ccc(O)cc3)nc(-c3csc4ccccc34)nc21 [StemRegenin 1] (drug 10000 nM)	T-47D	50.4
C[C@]12CC[C@@H]3c4ccc(OC(=O)N(CCCl)CCCl)cc4CC[C@H]3[C@@H]1CC[C@@H]2O [Estramustine] (drug 990000 nM)	T-47D	-3.37
Cc1cnc(NC(=O)Nc2cc(Br)c(C)cc2OC[C@@H]2CNCCO2)cn1 (drug 1000 nM)	T-47D	-8.57
O=P1(N(CCCl)CCCl)NCCCO1 (centres undefined) [Clafen (Cyclophosphamide, Endoxan)] (drug 40000 nM)	T-47D	-13.7
CS(=O)(=O)OCCCCOS(C)(=O)=O [Busulfan] (drug 100000 nM)	T-47D	-0.37
C#Cc1cccc(Nc2ncnc3cc(OC)c(OCCCCCCC(=O)NO)cc23)c1 [CUDC-101] (drug 10000 nM)	T-47D	94.8
C[C@]1(c2nc3c(C(N)=O)cccc3[nH]2)CCCN1 [Veliparib (ABT-888)] (drug 10000 nM)	T-47D	-15.3
CC(C)c1c(C(=O)Nc2ccccc2)c(-c2ccccc2)c(-c2ccc(F)cc2)n1CC[C@@H](O)C[C@@H](O)CC(=O)O [Atorvastatin] (drug 10000 nM)	T-47D	36.5
Cc1ccc(-n2nc(C(C)(C)C)cc2NC(=O)Nc2ccc(OCCN3CCOCC3)c3ccccc23)cc1 [Doramapimod (BIRB 796)] (drug 10000 nM)	T-47D	-2.59
CN1CC[C@H](c2c(O)cc(O)c3c(=O)cc(-c4ccccc4Cl)oc23)[C@H](O)C1 [Alvocidib (Flavopiridol)] (drug 10000 nM)	T-47D	-0.409

----------
- Tested on: T-47D
- test-protocol: drug sensitivity score (DSS) (DSS (dimensionless)); higher = more sensitive; extreme values may be limits of the assay
- setup-conditions: 4-OH-tamoxifen in medium 0 µM; 72 h

entry-smiles	drug sensitivity score
CN1CC[C@H](c2c(O)cc(O)c3c(=O)cc(-c4ccccc4Cl)oc23)[C@H](O)C1	7.14
CC1(C)CCC(c2ccc(Cl)cc2)=C(CN2CCN(c3ccc(C(=O)NS(=O)(=O)c4ccc(N[C@H](CCN5CCOCC5)CSc5ccccc5)c(S(=O)(=O)C(F)(F)F)c4)cc3)CC2)C1	0
NCC(=O)CCC(=O)O	0
CCN(CC)CCNC(=O)c1c(C)[nH]c(/C=C2\C(=O)Nc3ccc(F)cc32)c1C	0
COc1cc(Nc2c(C#N)cnc3cc(OCCCN4CCN(C)CC4)c(OC)cc23)c(Cl)cc1Cl	2.64
COc1cc2ncnc(Nc3ccc(F)c(Cl)c3)c2cc1OCCCN1CCOCC1	0.0062
C[C@]12C=CC(=O)C=C1CC[C@@H]1[C@@H]2[C@@H](O)C[C@@]2(C)[C@H]1CC[C@]2(O)C(=O)CO	0
O=NN(CCCl)C(=O)NCCCl	0

----------
- Test system: ZR-75-1
- test-protocol: viability inhibition at highest dose (% inhibition); higher = more growth inhibition
- setup-conditions: 4-OH-tamoxifen in medium 0 µM; 72 h
Entries whose viability inhibition at highest dose is below 8 take yes; entries at or above 8 take no.

compound	label-class
C[C@H]1C[C@@H]2[C@H]([C@@H](O)C[C@@]3(C)[C@H]2CC[C@]3(O)C(=O)CO)[C@@]2(C)C=CC(=O)C=C12 [Methylprednisolone] (drug 10000 nM)	yes
COc1cccc2c1C(=O)c1c(O)c3c(c(O)c1C2=O)C[C@@](O)(C(=O)CO)C[C@@H]3O[C@H]1C[C@H](N)[C@H](O)[C@H](C)O1 [Doxorubicin] (drug 1000 nM)	no
COc1c(C)cnc(Cn2cnc3c(Cl)nc(N)nc32)c1C [BIIB021] (drug 10000 nM)	no
CC1=C(/C=C/C(C)=C/C=C/C(C)=C/C(=O)O)C(C)(C)CCC1 [Tretinoin] (drug 10000 nM)	yes
Nc1nc2[nH]cc(CCc3ccc(C(=O)N[C@@H](CCC(=O)O)C(=O)O)cc3)c2c(=O)[nH]1 [Pemetrexed] (drug 10000 nM)	yes
C=CCN(/C=C1/C(=O)O[C@H](COC)[C@@]2(C)C1=C(O)C(=O)C1=C2[C@H](OC(C)=O)C[C@]2(C)C(=O)CC[C@@H]12)CC=C [Sonolisib (PX-866)] (drug 10000 nM)	yes

----------
# drug sensitivity score per entry
- Tested on: ZR-75-1 Tam1
- test-protocol: drug sensitivity score (DSS) (DSS (dimensionless)); higher = more sensitive; extreme values may be limits of the assay
- setup-conditions: 4-OH-tamoxifen in medium 1 µM; 72 h

compound	drug sensitivity score
Cn1cnc2c(F)c(Nc3ccc(Br)cc3Cl)c(C(=O)NOCCO)cc21	0
Nc1nc(F)nc2c1ncn2[C@@H]1O[C@H](CO)[C@@H](O)[C@@H]1O	0
c1cc(CN2CCCNCCNCCCNCC2)ccc1CN1CCCNCCNCCCNCC1	0
O=P1(NCCCl)OCCCN1CCCl (stereo not given) [Ifosfamide]	0
Nc1ccccc1NC(=O)c1ccc(CNc2nccc(-c3cccnc3)n2)cc1	2.33

----------
- Test system: T-47D
- test-protocol: viability inhibition at highest dose (% inhibition); higher = more growth inhibition
- setup-conditions: 4-OH-tamoxifen in medium 1 µM; 72 h

compound	viability inhibition at highest dose
COc1cc2/c(=N/c3ccc(Br)cc3F)nc[nH]c2cc1OCC1CCN(C)CC1 [Vandetanib (ZD6474, Zactima)] (drug 1000 nM)	-3.82
S=c1[nH]cnc2nc[nH]c12 [Mercaptopurine] (drug 10000 nM)	-0.759
CS(=O)(=O)N1CCN(Cc2cc3nc(-c4cccc5[nH]ncc45)nc(N4CCOCC4)c3s2)CC1 [Pictilisib (GDC-0941)] (drug 10000 nM)	76.6
CC[C@@H]1C(=O)N(C)c2cnc(Nc3ccc(C(=O)NC4CCN(C)CC4)cc3OC)nc2N1C1CCCC1 [BI 2536] (drug 1000 nM)	19.9

----------
- Tested on: MCF-7
- test-protocol: relative IC50 (midpoint of fitted logistic curve, plateau may be below 50% inhibition; CellTiter-Glo viability); higher = less potent
- setup-conditions: 4-OH-tamoxifen in medium 1 µM; 72 h
Counter-ions that a name gives are not always drawn.
# relative IC50 per entry
property-measured: relative IC50

compound	tested-on	data-value
COCC1(CO)C(=O)C2CCN1CC2 (configuration not stated)	MCF-7	> 10 µM
CO[C@H]1C[C@@H]2CC[C@@H](C)[C@@](O)(O2)C(=O)C(=O)N2CCCC[C@H]2C(=O)O[C@H]([C@H](C)C[C@@H]2CC[C@@H](OCCO)[C@H](OC)C2)CC(=O)[C@H](C)/C=C(\C)[C@@H](O)[C@@H](OC)C(=O)[C@H](C)C[C@H](C)/C=C/C=C/C=C/1C	MCF-7	0.000952 µM
CN(N=O)C(=O)N[C@@H](C=O)[C@@H](O)[C@H](O)[C@H](O)CO	MCF-7	> 10 µM
Cn1cc(C2=C(c3cn(C4CCN(Cc5ccccn5)CC4)c4ccccc34)C(=O)NC2=O)c2ccccc21	MCF-7	> 10 µM
c1ccc([C@H]2CN3CCSC3=N2)cc1 [Levamisole, (Tetramisole hydrochloride)]	MCF-7	> 10 µM
O=P(O)(NCCCl)NCCCl [Ifosfamide mustard]	MCF-7	> 10 µM
C[C@@H](Oc1cc(-c2cnn(C3CCNCC3)c2)cnc1N)c1c(Cl)ccc(F)c1Cl	MCF-7	> 1 µM

----------
- System: BT-474
- test-protocol: drug sensitivity score (DSS) (DSS (dimensionless)); higher = more sensitive; extreme values may be limits of the assay
- setup-conditions: 4-OH-tamoxifen in medium 1 µM; 72 h
property-measured: drug sensitivity score

compound	data-value
O=C(CCCCCCC(=O)Nc1ccccc1)NO [Vorinostat]	10.5
Nc1ncn([C@H]2C[C@H](O)[C@@H](CO)O2)c(=O)n1 [Decitabine (Dacogen)]	0
COc1ccccc1S(=O)(=O)Nc1ccc2c(c1)CN(C)C(=O)N2 [PFI-1]	0.561
Cc1c2oc3c(C)ccc(C(=O)N[C@@H]4C(=O)N[C@H](C(C)C)C(=O)N5CCC[C@H]5C(=O)N(C)CC(=O)N(C)[C@@H](C(C)C)C(=O)O[C@@H]4C)c3nc-2c(C(=O)N[C@@H]2C(=O)N[C@H](C(C)C)C(=O)N3CCC[C@H]3C(=O)N(C)CC(=O)N(C)[C@@H](C(C)C)C(=O)O[C@@H]2C)c(N)c1=O [Dactinomycin]	17.9
CCCC(CCC)C(=O)O [Valproic acid]	0
O=C(Cc1ccc(-c2ccc(OCCN3CCOCC3)cc2)cn1)NCc1ccccc1 [KX2-391]	21.8
N#Cc1ccc(C(c2ccc(C#N)cc2)n2cncn2)cc1 [Letrozole]	0
